The following compounds are listed with their measured Cmax values.
Assay: in vivo
Settings: male, Sprague-Dawley, rat, po, 8 g/kg, Cmax, sham group (SG) rats, oral administration of QSKL, plasma, mean ± SD, n = 6
measured endpoint: Cmax (ng/mL)

- compound: "COCC12CN(C)C3C4C(OC)C1C3(C(OC)CC2O)C1CC2(O)C(OC)C(O)C4(O)C1C2OC(=O)c1ccccc1 (stereo not shown)"
  reported result: 1.15
- compound: "COC[C@@]12CC[C@H](OC)[C@]34C(C([C@H](OC)[C@H]13)[C@]1(OC(C)=O)[C@H]3[C@@H](OC(=O)c5ccccc5)[C@](O)(C[C@H]34)[C@@H](OC)[C@@H]1O)N(C)C2"
  reported result: 0.101
- compound: "O=C(/C=C/c1ccc(O[C@@H]2O[C@H](CO)[C@@H](O)[C@H](O)[C@H]2O)cc1)c1ccc(O)cc1O"
  reported result: 0.389
- compound: "COCC12CCC(OC)C34C5CC6(O)C(OC)C(O)C(O)(C5C6OC(=O)c5ccccc5)C(C(OC)C13)C4N(C)C2 (stereo not shown)"
  reported result: 0.284

* * *

Test: Pharmacokinetic study in sham and myocardial ischemia model rats after a single oral dose of QSKL (UHPLC-psMS/MS of plasma, non-compartmental analysis)
Settings: male, Sprague-Dawley, rat, plasma, po, 8 g/kg, Tmax, model group (MG, myocardial ischemia) rats, oral administration of QSKL, plasma, mean ± SD, n = 6
Criterion: Tmax strictly less than 30 min. Met: Criterion met. Not met: Criterion not met.

- compound: "C[C@]1(OC(=O)/C=C/c2ccccc2)C[C@@H](O)[C@]2(O)C=CO[C@@H](O[C@@H]3O[C@H](CO)[C@@H](O)[C@H](O)[C@H]3O)[C@@H]21 [harpagoside]"
  qualitative label: "Criterion not met"
- compound: "O=C(/C=C/c1ccc(O)cc1)c1ccc(O)cc1O [isoliquiritigenin]"
  qualitative label: "Criterion met"
- compound: "CC1(C)[C@@H](O)CC[C@]2(C)[C@H]3C(=O)C=C4[C@@H]5C[C@@](C)(C(=O)O)CC[C@]5(C)CC[C@@]4(C)[C@]3(C)CC[C@@H]12 [glycyrrhetic acid]"
  qualitative label: "Criterion not met"
- compound: "Cc1coc2c1C(=O)C(=O)c1c-2ccc2c1CCCC2(C)C [tanshinone IIA]"
  qualitative label: "Criterion not met"
- compound: "COC(=O)C1=CO[C@@H](O[C@@H]2O[C@H](CO)[C@@H](O)[C@H](O)[C@H]2O)[C@@H]2[C@H](C)O[C@@H](O)C[C@H]12 [morroniside]"
  qualitative label: "Criterion met"
- compound: "COc1ccc(-c2coc3cc(O)ccc3c2=O)cc1O [calycosin]"
  qualitative label: "Criterion met"

* * *

Assay: in vivo
Details: male, Sprague-Dawley, rat, po, 8 g/kg, MRT

- compound: "O=c1cc(-c2ccc(O)c(O)c2)oc2cc(O[C@@H]3O[C@H](CO)[C@@H](O)[C@H](O)[C@H]3O)cc(O)c12 [luteoloside]"
  MRT / h: 50.5
- compound: "Cc1coc2c1C(=O)C(=O)c1c-2ccc2c(C)cccc12"
  MRT / h: 18.2
- compound: "Cc1cccc2c3c(ccc12)C1=C(C(=O)C3=O)[C@@H](C)CO1 [dihydrotanshinone I]"
  MRT / h: 8.22
- compound: "O=C1C[C@@H](c2ccc(O)cc2)Oc2cc(O)ccc21"
  MRT / h: 8.48
- compound: "C[C@H]1COC2=C1C(=O)C(=O)c1c2ccc2c1CCCC2(C)C"
  MRT / h: 19.3
- compound: "O=C1C[C@@H](c2ccc(O[C@@H]3O[C@H](CO)[C@@H](O)[C@H](O)[C@H]3O)cc2)Oc2cc(O)ccc21"
  MRT / h: 10.3

* * *

Test: Pharmacokinetic study in sham and myocardial ischemia model rats after a single oral dose of QSKL (UHPLC-psMS/MS of plasma, non-compartmental analysis)
Conditions: male, Sprague-Dawley, rat, plasma, po, 8 g/kg, AUC0–t, sham group (SG) rats, oral administration of QSKL, plasma, mean ± SD, n = 6
Entry flag: True if AUC(0-t) reaches 3 ng·h/mL; False if it does not.

- molecule: "COC(=O)C1=CO[C@@H](O[C@@H]2O[C@H](CO)[C@@H](O)[C@H](O)[C@H]2O)[C@@H]2[C@H](C)O[C@@H](O)C[C@H]12 [morroniside]"
  qualitative label: "True"
- molecule: "COc1ccc(-c2coc3cc(O)ccc3c2=O)cc1"
  qualitative label: "False"
- molecule: "O=C(/C=C/c1ccc(O)cc1)c1ccc(O)cc1O"
  qualitative label: "False"
- molecule: "CC1(C)[C@@H](O[C@H]2O[C@H](C(=O)O)[C@@H](O)[C@H](O)[C@H]2O[C@@H]2O[C@H](C(=O)O)[C@@H](O)[C@H](O)[C@H]2O)CC[C@]2(C)[C@H]3C(=O)C=C4[C@@H]5C[C@@](C)(C(=O)O)CC[C@]5(C)CC[C@@]4(C)[C@]3(C)CC[C@@H]12"
  qualitative label: "True"
- molecule: "Cc1coc2c1C(=O)C(=O)c1c-2ccc2c1CCCC2(C)C"
  qualitative label: "True"
- molecule: "CC1(C)[C@@H](O)CC[C@]2(C)[C@H]3C(=O)C=C4[C@@H]5C[C@@](C)(C(=O)O)CC[C@]5(C)CC[C@@]4(C)[C@]3(C)CC[C@@H]12"
  qualitative label: "True"
- molecule: "COc1ccc(-c2coc3cc(O)ccc3c2=O)cc1O"
  qualitative label: "False"

* * *

Settings: male, Sprague-Dawley, rat, in vivo, po, 8 g/kg
Field: label. Allowed values: True (AUC0–∞ < 6 ng·h/mL) or False (AUC0–∞ >= 6 ng·h/mL).

- molecule: "C=C[C@H]1[C@H](O[C@@H]2O[C@H](CO)[C@@H](O)[C@H](O)[C@H]2O)OC=C2C(=O)OCC[C@H]21 [sweroside]"
  qualitative label: "False"
- molecule: "C[C@H]1COC2=C1C(=O)C(=O)c1c2ccc2c1CCCC2(C)C"
  qualitative label: "False"
- molecule: "O=C1C[C@@H](c2ccc(O[C@@H]3O[C@H](CO)[C@@H](O)[C@H](O)[C@H]3O)cc2)Oc2cc(O)ccc21"
  qualitative label: "False"
- molecule: "O=C1C[C@@H](c2ccc(O)cc2)Oc2cc(O)ccc21"
  qualitative label: "True"
- molecule: "O=c1cc(-c2ccc(O)c(O)c2)oc2cc(O[C@@H]3O[C@H](CO)[C@@H](O)[C@H](O)[C@H]3O)cc(O)c12 [luteoloside]"
  qualitative label: "True"

* * *

Test: Pharmacokinetic study in sham and myocardial ischemia model rats after a single oral dose of QSKL (UHPLC-psMS/MS of plasma, non-compartmental analysis)
Settings: male, Sprague-Dawley, rat, plasma, po, 8 g/kg, MRT, sham group (SG) rats, oral administration of QSKL, plasma, mean ± SD, n = 6
measured endpoint: MRT

- molecule: "COc1ccc(-c2coc3cc(O)ccc3c2=O)cc1O"
  measured endpoint: "MRT"
  reported result: "55.9 h"
- molecule: "CC1(C)[C@@H](O[C@H]2O[C@H](C(=O)O)[C@@H](O)[C@H](O)[C@H]2O[C@@H]2O[C@H](C(=O)O)[C@@H](O)[C@H](O)[C@H]2O)CC[C@]2(C)[C@H]3C(=O)C=C4[C@@H]5C[C@@](C)(C(=O)O)CC[C@]5(C)CC[C@@]4(C)[C@]3(C)CC[C@@H]12"
  measured endpoint: "MRT"
  reported result: "63.7 h"
- molecule: "Cc1coc2c1C(=O)C(=O)c1c-2ccc2c1CCCC2(C)C"
  measured endpoint: "MRT"
  reported result: "20.9 h"
- molecule: "COc1ccc(-c2coc3cc(O)ccc3c2=O)cc1"
  measured endpoint: "MRT"
  reported result: "7 h"
- molecule: "COC(=O)C1=CO[C@@H](O[C@@H]2O[C@H](CO)[C@@H](O)[C@H](O)[C@H]2O)[C@@H]2[C@H](C)O[C@@H](O)C[C@H]12 [morroniside]"
  measured endpoint: "MRT"
  reported result: "25.1 h"
- molecule: "O=C(/C=C/c1ccc(O)cc1)c1ccc(O)cc1O"
  measured endpoint: "MRT"
  reported result: "7.85 h"

* * *

Cmax by entry:
Test: in vivo
Conditions: male, Sprague-Dawley, rat, po, 8 g/kg, Cmax, model group (MG, myocardial ischemia) rats, oral administration of QSKL, plasma, mean ± SD, n = 6
measured endpoint: Cmax (ng/mL)

- molecule: "COCC12CCC(OC)C34C5CC6(O)C(OC)C(O)C(O)(C5C6OC(=O)c5ccccc5)C(C(OC)C13)C4N(C)C2 (stereo not shown)"
  measured endpoint: "Cmax"
  reported result: 0.466
- molecule: "COCC12CN(C)C3C4C(OC)C1C3(C(OC)CC2O)C1CC2(O)C(OC)C(O)C4(O)C1C2OC(=O)c1ccccc1 (stereo not shown)"
  measured endpoint: "Cmax"
  reported result: 3.1
- molecule: "O=C(/C=C/c1ccc(O[C@@H]2O[C@H](CO)[C@@H](O)[C@H](O)[C@H]2O)cc1)c1ccc(O)cc1O"
  measured endpoint: "Cmax"
  reported result: 0.85
- molecule: "COC[C@@]12CC[C@H](OC)[C@]34C(C([C@H](OC)[C@H]13)[C@]1(OC(C)=O)[C@H]3[C@@H](OC(=O)c5ccccc5)[C@](O)(C[C@H]34)[C@@H](OC)[C@@H]1O)N(C)C2"
  measured endpoint: "Cmax"
  reported result: 0.156
